Acetylcholinesterase (Electrophorus electricus) IC50 data
Sequence (O42275 whole entry): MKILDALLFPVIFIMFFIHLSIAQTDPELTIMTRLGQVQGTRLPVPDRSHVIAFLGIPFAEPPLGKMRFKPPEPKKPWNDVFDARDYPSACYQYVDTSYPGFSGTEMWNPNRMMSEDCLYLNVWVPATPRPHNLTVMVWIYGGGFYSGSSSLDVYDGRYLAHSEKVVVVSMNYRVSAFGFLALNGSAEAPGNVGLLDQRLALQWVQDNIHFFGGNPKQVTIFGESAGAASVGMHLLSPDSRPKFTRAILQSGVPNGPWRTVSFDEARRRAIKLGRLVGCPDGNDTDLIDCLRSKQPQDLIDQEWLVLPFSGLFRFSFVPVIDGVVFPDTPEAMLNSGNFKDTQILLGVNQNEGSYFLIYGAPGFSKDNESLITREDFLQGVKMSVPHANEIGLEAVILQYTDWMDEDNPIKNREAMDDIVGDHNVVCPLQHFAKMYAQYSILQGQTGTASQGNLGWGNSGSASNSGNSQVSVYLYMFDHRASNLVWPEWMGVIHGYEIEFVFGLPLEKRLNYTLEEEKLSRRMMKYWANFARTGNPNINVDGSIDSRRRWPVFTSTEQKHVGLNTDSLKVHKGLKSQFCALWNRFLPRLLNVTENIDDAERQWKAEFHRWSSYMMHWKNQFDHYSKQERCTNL
Output spec: scalar in nM, unitless text.

[[record]]
smiles_code = "O=S(=O)(c1ccccc1)n1ccc2c(N3CCN(CCCCCCCNc4c5c(nc6ccccc46)CCCC5)CC3)cccc21"
measured_target = "Acetylcholinesterase (Electrophorus electricus)"
value_observed = 15.1

[[record]]
smiles_code = "O=S(=O)(c1ccccc1)n1ccc2c(N3CCN(CCCCCNCc4ccccc4)CC3)cccc21"
measured_target = "Acetylcholinesterase (Electrophorus electricus)"
value_observed = 4410


Field: next compound
// compound O=S(=O)(c1ccccc1)n1ccc2c(N3CCN(CCCNc4c5c(nc6ccccc46)CCCC5)CC3)cccc21 , assay Acetylcholinesterase (Electrophorus electricus), IC50 value: 12.1

* * *

Entries with reported Ki on 5-hydroxytryptamine receptor 6 (Homo sapiens, UniProt P50406)
Sequence (P50406 whole entry): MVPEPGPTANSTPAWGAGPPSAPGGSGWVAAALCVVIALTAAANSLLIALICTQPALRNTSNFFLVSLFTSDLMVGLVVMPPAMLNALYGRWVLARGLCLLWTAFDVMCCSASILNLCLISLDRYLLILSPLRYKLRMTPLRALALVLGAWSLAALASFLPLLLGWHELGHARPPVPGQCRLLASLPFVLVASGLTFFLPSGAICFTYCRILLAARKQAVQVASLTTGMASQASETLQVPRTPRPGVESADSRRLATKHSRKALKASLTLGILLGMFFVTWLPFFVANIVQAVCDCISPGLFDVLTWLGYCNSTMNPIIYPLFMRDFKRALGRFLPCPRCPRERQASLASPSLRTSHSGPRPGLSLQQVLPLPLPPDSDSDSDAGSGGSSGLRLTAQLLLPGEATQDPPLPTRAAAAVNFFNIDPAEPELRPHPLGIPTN

[[record]]
smiles_code = "O=S(=O)(c1ccccc1)n1ccc2c(N3CCN(CCCCNC4CCN(Cc5ccccc5)CC4)CC3)cccc21"
value_observed = "0.016 µM"

[[record]]
smiles_code = "O=S(=O)(c1ccccc1)n1ccc2c(N3CCN(CCCNc4c5c(nc6ccccc46)CCCC5)CC3)cccc21"
value_observed = "0.006 µM"

[[record]]
smiles_code = "CN(CCCCCN1CCN(c2cccc3c2ccn3S(=O)(=O)c2ccccc2)CC1)Cc1ccccc1"
value_observed = "0.01 µM"

[[record]]
smiles_code = "O=S(=O)(c1ccccc1)n1ccc2c(N3CCN(CCCCCCNc4c5c(nc6ccccc46)CCCC5)CC3)cccc21"
value_observed = "0.002 µM"

[[record]]
smiles_code = "O=S(=O)(c1ccccc1)n1ccc2c(N3CCN(CCNc4c5c(nc6ccccc46)CCCC5)CC3)cccc21"
value_observed = "0.01 µM"


Notebook: O=S(=O)(c1ccccc1)n1ccc2c(N3CCN(CCCNC4CCN(Cc5ccccc5)CC4)CC3)cccc21 , Ki read as 0.002 µM

Recorded Ki (molecule O=S(=O)(c1ccccc1)n1ccc2c(N3CCN(CCNCc4ccccc4)CC3)cccc21 ): 0.012 µM

Reported Ki of O=S(=O)(c1ccccc1)n1ccc2c(N3CCN(CCNC4CCN(Cc5ccccc5)CC4)CC3)cccc21 : 0.039 µM

So for O=S(=O)(c1ccccc1)n1ccc2c(N3CCN(CCCCNCc4ccccc4)CC3)cccc21 , the logged Ki turned out to be 0.008 µM

For this molecule ( O=S(=O)(c1ccccc1)n1ccc2c(N3CCN(CCCCCCCNc4c5c(nc6ccccc46)CCCC5)CC3)cccc21 ), measured Ki is 0.036 µM

* * *

molecular target: Cholinesterase (Equus caballus, UniProt P81908)
Sequence (P81908 whole entry): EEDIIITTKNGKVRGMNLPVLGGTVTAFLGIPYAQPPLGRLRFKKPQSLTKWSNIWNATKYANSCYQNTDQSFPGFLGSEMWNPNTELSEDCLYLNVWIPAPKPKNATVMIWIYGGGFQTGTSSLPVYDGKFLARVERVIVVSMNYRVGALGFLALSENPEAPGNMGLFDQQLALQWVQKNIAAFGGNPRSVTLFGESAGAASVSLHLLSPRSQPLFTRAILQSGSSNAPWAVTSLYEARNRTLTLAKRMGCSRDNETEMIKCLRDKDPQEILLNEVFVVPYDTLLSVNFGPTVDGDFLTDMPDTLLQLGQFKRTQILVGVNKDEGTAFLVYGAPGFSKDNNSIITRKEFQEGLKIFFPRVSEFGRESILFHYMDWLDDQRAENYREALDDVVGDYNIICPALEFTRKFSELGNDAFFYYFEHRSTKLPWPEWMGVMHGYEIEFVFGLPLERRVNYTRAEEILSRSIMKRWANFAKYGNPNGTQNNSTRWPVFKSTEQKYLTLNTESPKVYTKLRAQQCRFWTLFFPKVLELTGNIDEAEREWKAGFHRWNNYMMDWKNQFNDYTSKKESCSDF
Listing: pIC50 of selected compounds
Please treat pIC50 as minus the base-10 logarithm of the molar concentration.

[[record]]
compound = "O=S(=O)(c1ccccc1)n1ccc2c(N3CCN(CCCCNC4CCN(Cc5ccccc5)CC4)CC3)cccc21"
reported_metric = "pIC50"
value_observed = 5.66


The compound O=S(=O)(c1ccccc1)n1ccc2c(N3CCN(CCNc4c5c(nc6ccccc46)CCCC5)CC3)cccc21 , tested on Cholinesterase (Equus caballus, UniProt P81908), showed pIC50 of 7.77

Entry O=S(=O)(c1ccccc1)n1ccc2c(N3CCN(CCNCc4ccccc4)CC3)cccc21 , Cholinesterase (Equus caballus, UniProt P81908) data, pIC50 value: 5.88

O=S(=O)(c1ccccc1)n1ccc2c(N3CCN(CCCCNCc4ccccc4)CC3)cccc21 tested on Cholinesterase (Equus caballus, UniProt P81908) gave pIC50: 5.66

Readout pIC50 for O=S(=O)(c1ccccc1)n1ccc2c(N3CCN(CCCNC4CCN(Cc5ccccc5)CC4)CC3)cccc21 , test system Cholinesterase (Equus caballus, UniProt P81908), was 5.49

Assay Cholinesterase (Equus caballus, UniProt P81908), sample CN(CCCCCN1CCN(c2cccc3c2ccn3S(=O)(=O)c2ccccc2)CC1)Cc1ccccc1 , pIC50 read: 5.51

Note to self: pIC50 of O=S(=O)(c1ccccc1)n1ccc2c(N3CCN(CCCCCNc4c5c(nc6ccccc46)CCCC5)CC3)cccc21 with Cholinesterase (Equus caballus, UniProt P81908) was 7.67

// pIC50 (Cholinesterase (Equus caballus, UniProt P81908)) for O=S(=O)(c1ccccc1)n1ccc2c(N3CCN(CCCCCCCNc4c5c(nc6ccccc46)CCCC5)CC3)cccc21 = 8.00

So the reported pIC50 for O=S(=O)(c1ccccc1)n1ccc2c(N3CCN(CCNC4CCN(Cc5ccccc5)C4)CC3)cccc21 (stereo not drawn) , on Cholinesterase (Equus caballus, UniProt P81908), turned out to be 5.47

* * *

Please consider the recorded IC50 for Acetylcholinesterase (Electrophorus electricus, UniProt O42275) in what follows.
The reply should be a number in nM, with the unit left off.

[[record]]
smiles_code = "O=S(=O)(c1ccccc1)n1ccc2c(N3CCN(CCCCCCCCNc4c5c(nc6ccccc46)CCCC5)CC3)cccc21"
reported_metric = "IC50"
value_observed = 7.1

[[record]]
smiles_code = "O=S(=O)(c1ccccc1)n1ccc2c(N3CCN(CCCCCNc4c5c(nc6ccccc46)CCCC5)CC3)cccc21"
reported_metric = "IC50"
value_observed = 57

[[record]]
smiles_code = "O=S(=O)(c1ccccc1)n1ccc2c(N3CCN(CCNc4c5c(nc6ccccc46)CCCC5)CC3)cccc21"
reported_metric = "IC50"
value_observed = 7.5


Please turn your attention to the following entry.
O=S(=O)(c1ccccc1)n1ccc2c(N3CCN(CCCCCCNc4c5c(nc6ccccc46)CCCC5)CC3)cccc21 yielded IC50 of 45.9

* * *

target: Cholinesterase (Homo sapiens); assay: Inhibition of human recombinant BuChE preincubated for 5 mins followed by butyrylthiocholine iodide substrate addition measured after 5 mins by Ellman's method
Sequence (P06276 whole entry): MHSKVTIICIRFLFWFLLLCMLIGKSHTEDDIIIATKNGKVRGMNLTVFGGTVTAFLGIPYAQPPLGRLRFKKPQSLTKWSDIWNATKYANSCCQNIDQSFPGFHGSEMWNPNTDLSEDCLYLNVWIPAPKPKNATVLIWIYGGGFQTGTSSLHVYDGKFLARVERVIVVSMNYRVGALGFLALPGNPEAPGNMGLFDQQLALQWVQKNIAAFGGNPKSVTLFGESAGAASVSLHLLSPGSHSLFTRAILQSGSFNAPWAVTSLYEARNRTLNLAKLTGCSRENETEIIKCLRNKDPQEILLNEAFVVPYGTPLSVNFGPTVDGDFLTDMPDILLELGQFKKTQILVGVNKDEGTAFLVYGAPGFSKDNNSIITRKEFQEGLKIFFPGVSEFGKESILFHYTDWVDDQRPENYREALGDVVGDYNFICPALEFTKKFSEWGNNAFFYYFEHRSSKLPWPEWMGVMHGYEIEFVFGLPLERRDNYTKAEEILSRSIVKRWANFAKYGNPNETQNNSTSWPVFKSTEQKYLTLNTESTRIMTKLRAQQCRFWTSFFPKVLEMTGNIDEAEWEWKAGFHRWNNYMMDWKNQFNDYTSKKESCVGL
REPORTED_METRIC: IC50 (nM)
Respond with the bare value in nM.

Lab note: O=S(=O)(c1ccccc1)n1ccc2c(N3CCN(CCCCCCNc4c5c(nc6ccccc46)CCCC5)CC3)cccc21 gave IC50 of 29.7

* * *

molecular target: UniProtKB P22303; experiment: Inhibition of human recombinant AChE preincubated for 5 mins followed by acetylthiocholine iodide substrate addition measured after 5 mins by Ellman's method
Sequence (P22303 whole entry): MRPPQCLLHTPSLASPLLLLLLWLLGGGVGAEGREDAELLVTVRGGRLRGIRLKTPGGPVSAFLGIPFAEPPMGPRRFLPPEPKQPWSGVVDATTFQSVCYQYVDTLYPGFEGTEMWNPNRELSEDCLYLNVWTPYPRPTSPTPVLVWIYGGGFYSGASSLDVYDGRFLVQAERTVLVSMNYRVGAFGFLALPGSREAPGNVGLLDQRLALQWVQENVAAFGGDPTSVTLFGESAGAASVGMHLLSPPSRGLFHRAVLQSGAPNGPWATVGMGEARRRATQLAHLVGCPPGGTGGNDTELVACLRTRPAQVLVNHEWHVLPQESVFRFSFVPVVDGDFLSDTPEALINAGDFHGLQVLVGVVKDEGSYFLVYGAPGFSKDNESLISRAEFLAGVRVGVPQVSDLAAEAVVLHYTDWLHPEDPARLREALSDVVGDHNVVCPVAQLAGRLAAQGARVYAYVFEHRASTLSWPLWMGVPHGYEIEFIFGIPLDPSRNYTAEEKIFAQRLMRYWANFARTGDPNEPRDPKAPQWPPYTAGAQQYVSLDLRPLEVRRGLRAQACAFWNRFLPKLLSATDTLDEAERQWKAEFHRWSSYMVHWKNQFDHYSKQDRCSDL
Measured pIC50 accompanies every entry in the list below.
On this scale, pIC50 is minus log10 of a concentration expressed in M (mol/L).

# value of pIC50, UniProtKB P22303, item O=S(=O)(c1ccccc1)n1ccc2c(N3CCN(CCNc4c5c(nc6ccccc46)CCCC5)CC3)cccc21 = 7.36

For the molecule O=S(=O)(c1ccccc1)n1ccc2c(N3CCN(CCCCCCNc4c5c(nc6ccccc46)CCCC5)CC3)cccc21 , the measured pIC50 on UniProtKB P22303 was 7.89

Measured pIC50 for this entry O=S(=O)(c1ccccc1)n1ccc2c(N3CCN(CCCNc4c5c(nc6ccccc46)CCCC5)CC3)cccc21 on UniProtKB P22303: 8.01

The measured pIC50 that O=S(=O)(c1ccccc1)n1ccc2c(N3CCN(CCCCCCCNc4c5c(nc6ccccc46)CCCC5)CC3)cccc21 showed for UniProtKB P22303 is 8.21

With UniProtKB P22303 as the test system, O=S(=O)(c1ccccc1)n1ccc2c(N3CCN(CCCCCCCCNc4c5c(nc6ccccc46)CCCC5)CC3)cccc21 showed pIC50 of 8.89

Case O=S(=O)(c1ccccc1)n1ccc2c(N3CCN(CCCCCNc4c5c(nc6ccccc46)CCCC5)CC3)cccc21 , UniProtKB P22303, pIC50 recorded as 7.74

* * *

In what follows, each item is paired with its Ki for 5-hydroxytryptamine receptor 6 (Homo sapiens).
Please respond with the number in nM and leave the unit unwritten.

Example results:
[[record]]
compound = "O=S(=O)(c1ccccc1)n1ccc2c(N3CCN(CCCCCNCc4ccccc4)CC3)cccc21"
reported_metric = "Ki"
value_observed = 8

[[record]]
compound = "O=S(=O)(c1ccccc1)n1ccc2c(N3CCN(CCCNCc4ccccc4)CC3)cccc21"
reported_metric = "Ki"
value_observed = 16

[[record]]
compound = "O=S(=O)(c1ccccc1)n1ccc2c(N3CCN(CCCCCCNCc4ccccc4)CC3)cccc21"
reported_metric = "Ki"
value_observed = 2

[[record]]
compound = "CN(CCCN1CCN(c2cccc3c2ccn3S(=O)(=O)c2ccccc2)CC1)Cc1ccccc1"
reported_metric = "Ki"
value_observed = 10

[[record]]
compound = "CN(CCCCN1CCN(c2cccc3c2ccn3S(=O)(=O)c2ccccc2)CC1)Cc1ccccc1"
reported_metric = "Ki"
value_observed = 4


O=S(=O)(c1ccccc1)n1ccc2c(N3CCN(CCNC4CCN(Cc5ccccc5)C4)CC3)cccc21 (centres undefined) on 5-hydroxytryptamine receptor 6 (Homo sapiens) gives Ki = 13

Value sought: Ki, system 5-hydroxytryptamine receptor 6 (Homo sapiens), item O=S(=O)(c1ccccc1)n1ccc2c(N3CCN(CCCCCCCCNc4c5c(nc6ccccc46)CCCC5)CC3)cccc21 . Result: 36

Observed Ki on 5-hydroxytryptamine receptor 6 (Homo sapiens), entry CN(CCN1CCN(c2cccc3c2ccn3S(=O)(=O)c2ccccc2)CC1)Cc1ccccc1 , equals 15

Readout Ki for O=S(=O)(c1ccccc1)n1ccc2c(N3CCN(CCCCCNc4c5c(nc6ccccc46)CCCC5)CC3)cccc21 , test system 5-hydroxytryptamine receptor 6 (Homo sapiens), was 8
